target: P2X1 receptors (Homo sapiens); test: Fluorometric microplate assay with voltage-sensitive (membrane potential) dye, FlexStation III; type: cell-based; set-up: expressed in transfected cells; settings: agonist, peak fluorescence, HEK 293T cells stably expressing P2X1
Sequence (P51575 whole entry): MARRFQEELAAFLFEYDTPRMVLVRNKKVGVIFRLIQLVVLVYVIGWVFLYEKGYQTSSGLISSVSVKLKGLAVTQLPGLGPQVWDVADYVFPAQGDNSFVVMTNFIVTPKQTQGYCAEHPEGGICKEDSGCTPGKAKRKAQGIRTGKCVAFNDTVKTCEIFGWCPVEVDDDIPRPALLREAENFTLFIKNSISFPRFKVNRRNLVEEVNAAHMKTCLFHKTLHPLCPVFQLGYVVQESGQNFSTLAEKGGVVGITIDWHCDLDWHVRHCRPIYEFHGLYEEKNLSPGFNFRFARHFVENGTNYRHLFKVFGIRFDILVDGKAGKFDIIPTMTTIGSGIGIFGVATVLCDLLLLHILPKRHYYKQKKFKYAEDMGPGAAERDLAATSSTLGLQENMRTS
PARAMETER MEASURED: EC50 (µM)
Give bare numbers, in µM.

{"MOLECULE": "Nc1ncnc2c1ncn2[C@@H]1O[C@H](COP(=O)(O)OP(=O)([O-])OP(=O)([O-])O)[C@@H](O)[C@H]1O.[Mg+2] [MgATP]", "VALUE UNIT": "µM", "EC50": 14.1}

// switching to the query molecule
Would you mind telling me what EC50 value was observed for Nc1ncnc2c1ncn2[C@@H]1O[C@H](COP(=O)(O)OP(=O)([O-])OP(=O)([O-])O)[C@@H](O)[C@H]1O.[Na+].[Na+] [NaATP] ? 5.49
